Each entry below lists one item and its recorded Initial pH difference value.
# Assay Overview: Accelerated stability test (50° C.) with pH stability test of sucralose sample solution
# Assay type: physicochemical
# Experimental Conditions: sample solution vs pH-adjusted water at time zero, (−) pH drop, (+) pH gain; Example 1

Compound | Initial pH difference
OC[C@H]1O[C@H](O[C@]2(CCl)O[C@H](CCl)[C@@H](O)[C@@H]2O)[C@H](O)[C@@H](O)[C@H]1Cl [Sample 27] | +0.03
OC[C@H]1O[C@H](O[C@]2(CCl)O[C@H](CCl)[C@@H](O)[C@@H]2O)[C@H](O)[C@@H](O)[C@H]1Cl [Sample 15] | +0.13
OC[C@H]1O[C@H](O[C@]2(CCl)O[C@H](CCl)[C@@H](O)[C@@H]2O)[C@H](O)[C@@H](O)[C@H]1Cl [Sample 18] | +0.07
OC[C@H]1O[C@H](O[C@]2(CCl)O[C@H](CCl)[C@@H](O)[C@@H]2O)[C@H](O)[C@@H](O)[C@H]1Cl [Sample 25] | +0.05
OC[C@H]1O[C@H](O[C@]2(CCl)O[C@H](CCl)[C@@H](O)[C@@H]2O)[C@H](O)[C@@H](O)[C@H]1Cl [Sample 11] | +0.10
OC[C@H]1O[C@H](O[C@]2(CCl)O[C@H](CCl)[C@@H](O)[C@@H]2O)[C@H](O)[C@@H](O)[C@H]1Cl [Sample 28] | +0.02
OC[C@H]1O[C@H](O[C@]2(CCl)O[C@H](CCl)[C@@H](O)[C@@H]2O)[C@H](O)[C@@H](O)[C@H]1Cl [Sample 24] | +0.03
